target-of-assay: Axl (Homo sapiens, UniProt P30530)
Construct: endogenous in cells; host or cells: HeLa cells
measurement-notes: Phospho-Akt In-Cell Western Assay (inhibition of Axl activity after Axl-antibody cross-linking)
Format: cell-based
reported-conditions: Hela cells, phospho-Akt chemiluminescence normalized to relative cell number; compounds of formula (Ia), Table 1; read-out: IC50
pIC50: −log10 of the molar value.

compound: Nc1nc(Nc2ccc(OCCN3CCCC3)c(F)c2)nn1-c1cc2c(nn1)-c1cc(F)ccc1CCC2
pIC50: > 6.00
//
compound: Nc1nc(Nc2ccc(N3CCC(N4CCCC4)CC3)cc2)nn1-c1cc2c(nn1)-c1ccccc1CCC2
pIC50: > 6.00
//
compound: Nc1nc(Nc2ccc(I)nc2)nn1-c1cc2c(nn1)-c1ccccc1CCC2
pIC50: < 4.70
//
compound: CN1CCC2(CCN(c3ccc(Nc4nc(N)n(-c5cc6c(nn5)-c5ccccc5CCC6)n4)cc3F)C2)C1 (stereo not shown)
pIC50: > 6.00

* * *

target-of-assay: Axl (Homo sapiens)
Construct: endogenous in cells; host or cells: HeLa cells
Sequence (P30530 26-894): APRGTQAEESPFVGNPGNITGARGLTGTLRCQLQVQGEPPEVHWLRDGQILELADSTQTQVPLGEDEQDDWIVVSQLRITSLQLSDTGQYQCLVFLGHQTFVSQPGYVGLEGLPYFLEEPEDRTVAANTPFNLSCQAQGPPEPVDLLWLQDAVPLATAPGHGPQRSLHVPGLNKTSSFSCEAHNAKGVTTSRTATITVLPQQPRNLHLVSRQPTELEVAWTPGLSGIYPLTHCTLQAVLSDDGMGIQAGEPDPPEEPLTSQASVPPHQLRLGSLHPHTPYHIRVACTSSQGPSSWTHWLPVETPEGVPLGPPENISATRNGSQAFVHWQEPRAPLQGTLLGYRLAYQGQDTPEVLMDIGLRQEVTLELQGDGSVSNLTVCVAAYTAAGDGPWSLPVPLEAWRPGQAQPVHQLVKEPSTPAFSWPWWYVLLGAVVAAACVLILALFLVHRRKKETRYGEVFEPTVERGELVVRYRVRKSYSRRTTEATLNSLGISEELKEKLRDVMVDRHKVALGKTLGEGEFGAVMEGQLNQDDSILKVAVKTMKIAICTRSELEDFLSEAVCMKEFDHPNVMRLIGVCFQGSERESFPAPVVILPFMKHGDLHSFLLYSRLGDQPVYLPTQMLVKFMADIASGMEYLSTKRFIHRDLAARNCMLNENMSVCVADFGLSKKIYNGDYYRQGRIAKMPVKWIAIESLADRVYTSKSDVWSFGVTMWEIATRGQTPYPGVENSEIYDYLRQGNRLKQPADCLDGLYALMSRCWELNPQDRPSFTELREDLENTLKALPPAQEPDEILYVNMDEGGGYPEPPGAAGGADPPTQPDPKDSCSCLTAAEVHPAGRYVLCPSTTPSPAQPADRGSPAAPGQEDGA
measurement-notes: Phospho-Akt In-Cell Western Assay (inhibition of Axl activity after Axl-antibody cross-linking)
Assay type: cell-based
reported-conditions: Hela cells, phospho-Akt chemiluminescence normalized to relative cell number; compounds of formula (Ia), Table 1; read-out: IC50
Each item that follows carries a reported IC50.
outcome-measure: IC50

compound: Nc1nc(Nc2ccc(N3CCCC(N4CCCC4)C3)c(F)c2)nn1-c1cc2c(nn1)-c1ccccc1CCC2 (stereo not shown)
measured: < 1000 nM

compound: CC1(C)CCCC(C)(C)N1CCOc1ccc(Nc2nc(N)n(-c3cc4c(nn3)-c3ccccc3CCC4)n2)cc1
measured: 1000 to 10000 nM

compound: Nc1nc(Nc2ccc(OCCN3CCCC3)cc2)nn1-c1cc2c(nn1)-c1ccccc1CCC2
measured: < 1000 nM

compound: Nc1nc(Nc2ccc(N3CCC(N4CCCCC4)CC3)c(F)c2)nn1-c1cc2c(nn1)-c1ccccc1CCC2
measured: < 1000 nM
